Listed here are compounds together with their documented inhibition at 10 µM.
# Tested on: PC-9
# measurement-protocol: Antiproliferative activity against human PC9 cells assessed as inhibition of cell growth at 10 uM incubated for 48 hrs by MTT assay relative to control
# Assay type: functional
# recorded-conditions: PC-9, 48 h
Give the value, in units of %, as a plain number.

| smiles-str | units-label | inhibition at 10 µM |
| --- | --- | --- |
| COc1ccc(OC)c(Nc2cc(NC(=O)Nc3c(Cl)cccc3Cl)ncn2)c1 | % | 95 |
| CCc1cccc(Nc2cc(NC(=O)Nc3cc(OC)cc(OC)c3)ncn2)c1 | % | 82.1 |
| O=C(Nc1cccc(Nc2cc(Nc3cccc(C(F)(F)F)c3)ncn2)c1)C1CC1 | % | 90.5 |

// below: inhibition at 10 µM requested for another compound
IN: For PC-9, give the measured inhibition at 10 µM of the entry COc1cc(Nc2cc(NC(=O)Nc3c(Cl)cccc3Cl)ncn2)cc(C(F)(F)F)c1
OUT: 88.5
